The reported numbers originate from patent US11945814B2.

Assay: Solubility of the diphosphate salt in a range of dissolution media
Assay type: physicochemical
Settings: fassgf or other biorelevant, thermodynamic from solid; SFaGF, pH 1.6; 37° C., minimum of 21 hours
measuredAttribute: solubility (mg/mL)
Answers are plain numbers, in mg/mL.

INPUT: Specify reported solubility for the compound shown: `CCOc1cc(-c2nncn2C)ccc1Nc1ncc2cc(C)nc(NCC(C)(C)C)c2n1`
OUTPUT: 30.5
